Test system: DPS/Y181C
assay_comment: activity against HIV mutants: DPS/Y181C
Assay type: cell-based, HIV-1
assay_conditions: Human immunodeficiency virus 1, DPS/Y181C
pEC50: −log10 of the molar value.
assay_metric: pEC50

> print(dat)
                                   compound  assay.metric  readout.number
1  COc1c(O)cc(C2COc3cc(O)cc(O)c3C2=O)cc1CC=C(C)C (racemic)         pEC50            5.86

* * *

Test system: CEM-SS
assay_comment: growth inhibition of uninfected host cells in anti-HIV screen
assay_conditions: Homo sapiens, cell growth, SIV MAC test
pIC50: −log10 of the molar value.
assay_metric: pIC50

> print(dat)
                                   compound  readout.number
1  COc1c(O)cc(C2COc3cc(O)cc(O)c3C2=O)cc1CC=C(C)C (racemic)            4.46
